Data origin, for the record: patent US20160008277A1

- Assay Procedure: clinical
- Test Conditions: human, plasma, other: intranasal, 2 mg, AUC0-∞, GLSM, 2 mg IN; no dose adjustment
Readout Label: AUC(0-inf) (ng·h/mL)
Number only, in ng·h/mL; omit the unit.

// AUC(0-inf) value for C=CCN1CC[C@]23c4c5ccc(O)c4O[C@H]2C(=O)CC[C@@]3(O)[C@H]1C5 [naloxone] : 3.32

* * *

- Assay Procedure: clinical
- Test Conditions: human, plasma, other: intranasal, 2 mg, AUC0-t, GLSM, 2 mg IN; no dose adjustment
Readout Label: AUC(0-t) (ng·h/mL)
Number only, in ng·h/mL; omit the unit.

// AUC(0-t) value for C=CCN1CC[C@]23c4c5ccc(O)c4O[C@H]2C(=O)CC[C@@]3(O)[C@H]1C5 : 3.28

* * *

- Assay Procedure: clinical
- Test Conditions: human, plasma, other: intranasal, 4 mg, Tmax, GLSM, 4 mg IN
Readout Label: Tmax
Number plus unit, in that order.

// Tmax value for C=CCN1CC[C@]23c4c5ccc(O)c4O[C@H]2C(=O)CC[C@@]3(O)[C@H]1C5 : 17.5 min

* * *

- Assay Procedure: clinical
- Test Conditions: male, human, plasma, other: intranasal, 4 mg, Cmax, Two 20 mg/mL IN; Male
Readout Label: Cmax

// Cmax value for C=CCN1CC[C@]23c4c5ccc(O)c4O[C@H]2C(=O)CC[C@@]3(O)[C@H]1C5 [naloxone] : 6.64 ng/mL

* * *

- Assay Procedure: clinical
- Test Conditions: human, plasma, im, 0.4 mg, AUC0-∞, Mean, 0.4 mg IM
Readout Label: AUC(0-inf) (ng·h/mL)
Number only, in ng·h/mL; omit the unit.

// AUC(0-inf) value for C=CCN1CC[C@]23c4c5ccc(O)c4O[C@H]2C(=O)CC[C@@]3(O)[C@H]1C5 : 1.42

* * *

- Assay Procedure: clinical
- Test Conditions: male, human, plasma, other: intranasal, 2 mg, Tmax (median), One 20 mg/mL IN; Male
Readout Label: Tmax (min)
Number only, in min; omit the unit.

// Tmax value for C=CCN1CC[C@]23c4c5ccc(O)c4O[C@H]2C(=O)CC[C@@]3(O)[C@H]1C5 : 19.8

* * *

- Assay Procedure: clinical
- Test Conditions: female, human, plasma, other: intranasal, 8 mg, Cmax, Two 40 mg/mL IN; Female
Readout Label: Cmax (ng/mL)
Number only, in ng/mL; omit the unit.

// Cmax value for C=CCN1CC[C@]23c4c5ccc(O)c4O[C@H]2C(=O)CC[C@@]3(O)[C@H]1C5 : 9.52

* * *

- Assay Procedure: clinical
- Test Conditions: male, human, plasma, other: intranasal, 8 mg, Cmax, Two 40 mg/mL IN; Male
Readout Label: Cmax (ng/mL)
Number only, in ng/mL; omit the unit.

// Cmax value for C=CCN1CC[C@]23c4c5ccc(O)c4O[C@H]2C(=O)CC[C@@]3(O)[C@H]1C5 [naloxone] : 10.9

* * *

- Assay Procedure: clinical
- Test Conditions: male, human, plasma, other: intranasal, 4 mg, Cmax, One 40 mg/mL IN; Male
Readout Label: Cmax (ng/mL)
Number only, in ng/mL; omit the unit.

// Cmax value for C=CCN1CC[C@]23c4c5ccc(O)c4O[C@H]2C(=O)CC[C@@]3(O)[C@H]1C5 : 5.51

* * *

- Assay Procedure: clinical
- Test Conditions: human, plasma, im, 0.4 mg, AUC0-t, Mean, 0.4 mg IM
Readout Label: AUC(0-t) (ng·h/mL)
Number only, in ng·h/mL; omit the unit.

// AUC(0-t) value for C=CCN1CC[C@]23c4c5ccc(O)c4O[C@H]2C(=O)CC[C@@]3(O)[C@H]1C5 [naloxone] : 1.38

* * *

- Assay Procedure: clinical
- Test Conditions: human, plasma, other: intranasal, 2 mg, AUC0-∞, Mean, 2 mg IN
Readout Label: AUC(0-inf) (ng·h/mL)
Number only, in ng·h/mL; omit the unit.

// AUC(0-inf) value for C=CCN1CC[C@]23c4c5ccc(O)c4O[C@H]2C(=O)CC[C@@]3(O)[C@H]1C5 [naloxone] : 3.44

* * *

- Assay Procedure: clinical
- Test Conditions: human, plasma, other: intranasal, 4 mg, Cmax, mean (% CV), One Spray - 4 mg 40 mg/mL IN
Readout Label: Cmax (ng/mL)
Number only, in ng/mL; omit the unit.

// Cmax value for C=CCN1CC[C@]23c4c5ccc(O)c4O[C@H]2C(=O)CC[C@@]3(O)[C@H]1C5 : 5.34

* * *

- Assay Procedure: clinical
- Test Conditions: human, plasma, other: intranasal, 4 mg, Tmax (median, range), Two Sprays - 4 mg 20 mg/mL IN
Readout Label: Tmax (min)
Number only, in min; omit the unit.

// Tmax value for C=CCN1CC[C@]23c4c5ccc(O)c4O[C@H]2C(=O)CC[C@@]3(O)[C@H]1C5 [naloxone] : 19.8

* * *

- Assay Procedure: clinical
- Test Conditions: female, human, plasma, other: intranasal, 4 mg, Tmax (median), Two 20 mg/mL IN; Female
Readout Label: Tmax (min)
Number only, in min; omit the unit.

// Tmax value for C=CCN1CC[C@]23c4c5ccc(O)c4O[C@H]2C(=O)CC[C@@]3(O)[C@H]1C5 [naloxone] : 19.8

* * *

- Assay Procedure: clinical
- Test Conditions: female, human, plasma, other: intranasal, 2 mg, Tmax (median), One 20 mg/mL IN; Female
Readout Label: Tmax (min)
Number only, in min; omit the unit.

// Tmax value for C=CCN1CC[C@]23c4c5ccc(O)c4O[C@H]2C(=O)CC[C@@]3(O)[C@H]1C5 [naloxone] : 19.8

* * *

- Assay Procedure: clinical
- Test Conditions: human, plasma, other: intranasal, 8 mg, Tmax (median, range), Two Sprays - 8 mg 40 mg/mL IN
Readout Label: Tmax (min)
Number only, in min; omit the unit.

// Tmax value for C=CCN1CC[C@]23c4c5ccc(O)c4O[C@H]2C(=O)CC[C@@]3(O)[C@H]1C5 : 19.8

* * *

- Assay Procedure: clinical
- Test Conditions: human, plasma, im, 0.4 mg, Tmax, Mean, 0.4 mg IM
Readout Label: Tmax (min)
Number only, in min; omit the unit.

// Tmax value for C=CCN1CC[C@]23c4c5ccc(O)c4O[C@H]2C(=O)CC[C@@]3(O)[C@H]1C5 : 20.3

* * *

- Assay Procedure: clinical
- Test Conditions: human, plasma, other: intranasal, 4 mg, AUC0-t, Mean, 4 mg IN
Readout Label: AUC(0-t) (ng·h/mL)
Number only, in ng·h/mL; omit the unit.

// AUC(0-t) value for C=CCN1CC[C@]23c4c5ccc(O)c4O[C@H]2C(=O)CC[C@@]3(O)[C@H]1C5 : 5.63

* * *

- Assay Procedure: clinical
- Test Conditions: human, plasma, other: intranasal, 4 mg, AUC0-∞, GLSM, 4 mg IN; no dose adjustment
Readout Label: AUC(0-inf) (ng·h/mL)
Number only, in ng·h/mL; omit the unit.

// AUC(0-inf) value for C=CCN1CC[C@]23c4c5ccc(O)c4O[C@H]2C(=O)CC[C@@]3(O)[C@H]1C5 : 5.47

* * *

- Assay Procedure: clinical
- Test Conditions: human, plasma, other: intranasal, 2 mg, Tmax, Mean, 2 mg IN
Readout Label: Tmax (min)
Number only, in min; omit the unit.

// Tmax value for C=CCN1CC[C@]23c4c5ccc(O)c4O[C@H]2C(=O)CC[C@@]3(O)[C@H]1C5 [naloxone] : 20
